System: JHOS2
Assay: drug sensitivity score (DSS) from 5-point dose-response viability curve (DSS (area-under-curve based score)); higher = more sensitive (stronger growth inhibition or killing); extreme values may be limits of the assay
Settings: exposure time: 72 h; concentration range: 5 concentrations over 10,000-fold range
Binary classification by drug sensitivity score, with 0.1 as an inclusive lower bound for rule met; all other cases are rule not met.

compound="CC(C)C(=O)Nc1ccc([N+](=O)[O-])c(C(F)(F)F)c1 [Flutamide]" classification="rule met"
compound="O=C1Cc2cc(C(=O)NC3C[C@H]4CC[C@@H](C3)N4S(=O)(=O)CC3CCN(CCCC(F)(F)F)CC3)c(Cl)cc2N1 (some centres undefined)" classification="rule not met"
compound=O=C(Nc1cccnc1)N1CCC(Cc2cccc(Oc3ccc(C(F)(F)F)cn3)c2)CC1 classification="rule not met"
compound=CC[C@@H]1[C@H](F)C(=O)N[C@@H]1COc1nccc2cc(C(N)=O)c(OC)cc12 classification="rule met"
compound="N.N.[Cl][Pt][Cl] [Cisplatin]" classification="rule met"
compound=CC(=O)c1cnc2ccc(-c3cc(Cl)c(O)c(Cl)c3)nc2c1N[C@H]1CC[C@H](CN(C)C)CC1 classification="rule met"
compound=CNC(=O)c1cc(COc2nnc(Nc3ccc(Cl)cc3)c3ccoc23)ccn1 classification="rule not met"

Next item in the queue.
Is drug sensitivity score for "CNc1ncc2cc(-c3cc(NC(=O)NCCC(C)(C)C)c(F)cc3C)c(C)nc2n1" at or above 0.1?
rule met

----------
Measured drug sensitivity score, listed per entry for reference.
Tested on: CAOV3
Experiment: drug sensitivity score (DSS) from 5-point dose-response viability curve (DSS (area-under-curve based score)); higher = more sensitive (stronger growth inhibition or killing); extreme values may be limits of the assay
Conditions: exposure time: 72 h; concentration range: 5 concentrations over 10,000-fold range
In your answer, state the number alone without any accompanying words.

molecule="CC(C)c1cc(C(=O)N2Cc3ccc(CN4CCN(C)CC4)cc3C2)c(O)cc1O [Onalespib]" recorded_measurement=11.6
molecule="Cc1cccc(-c2[nH]c(CNc3ccccc3F)nc2-c2ccc3ncnn3c2)n1 [TEW-7197]" recorded_measurement=0
molecule="Cn1c(=O)n(-c2ccc(C(C)(C)C#N)cc2)c2c3cc(-c4cnc5ccccc5c4)ccc3ncc21 [Dactolisib]" recorded_measurement=11
molecule="CCN(CC)Cc1ccc2cc(COC(=O)Nc3ccc(C(=O)NO)cc3)ccc2c1 [Givinostat]" recorded_measurement=7.3
molecule=O=C(NC[C@H](O)CN1CCc2ccccc2C1)c1cc(NC2COC2)ncn1 recorded_measurement=0
molecule="Cc1nc(NC(=O)N2CCC[C@H]2C(N)=O)sc1-c1ccnc(C(C)(C)C(F)(F)F)c1 [Alpelisib]" recorded_measurement=3.7
molecule="Nc1nc(Cl)nc2c1ncn2[C@H]1C[C@H](O)[C@@H](CO)O1 [Cladribine]" recorded_measurement=4.2
molecule="CCS(=O)(=O)N1CCN(c2ccc(Nc3ncc(C(N)=O)c(NC4CC4)n3)cc2)CC1 [Cerdulatinib]" recorded_measurement=0.2
molecule="CO[C@H]1C(=O)[C@]2(C)[C@@H](OC)C[C@H]3OC[C@@]3(OC(C)=O)[C@H]2[C@H](OC(=O)c2ccccc2)[C@]2(O)C[C@H](OC(=O)[C@H](O)[C@@H](NC(=O)OC(C)(C)C)c3ccccc3)C(C)=C1C2(C)C [Cabazitaxel]" recorded_measurement=29.3
molecule="Cc1ccc(-c2cc(C(F)(F)F)nn2-c2ccc(S(N)(=O)=O)cc2)cc1 [Celecoxib]" recorded_measurement=0

Find the recorded drug sensitivity score belonging to C=CC(=O)Nc1cccc(Oc2nc(Nc3ccc(N4CCN(C)CC4)cc3)nc3ccsc23)c1 [Olmutinib] and report it.
0.3

Any idea what drug sensitivity score was measured for "CC(C)(C)c1cc(NC(=O)Nc2ccc(Oc3ccnc4[nH]c(=O)cnc34)cc2F)n(-c2ccccc2)n1" ?
2.8

Query (molecule): CC(C)NC(=O)COc1cccc(-c2nc(Nc3ccc4[nH]ncc4c3)c3ccccc3n2)c1 [KD025] ; field requested: drug sensitivity score
0.4

Return reported drug sensitivity score; argument: COCCOc1cnc2ccn([C@H](C)c3nnc4c(F)cc(-c5cnn(C)c5)cn34)c(=O)c2c1 [AMG-337]
0

GET /values?readout=drug sensitivity score&item= CN[C@@H]1C[C@H]2O[C@@](C)([C@@H]1OC)n1c3ccccc3c3c4c(c5c6ccccc6n2c5c31)C(=O)N[C@H]4O [UCN-01]
19.3

So what's the measured drug sensitivity score for this one? Cc1cc(C(C)Nc2ccccc2)c2nc(N3CCOCC3)cc(=O)n2c1 (stereo unspecified) [TGX-221]
0.8
